Let's look at some sequences and their measured protein stability index.
- Tested on: Saccharomyces cerevisiae
- assay-overview: protein stability index of tFT-peptide fusion (C-terminal peptide) (PSI (0-1 scale)); higher = more stable (slower turnover)
- measurement-context: genetic background: wild type; temperature: 30 C

Please review the entries below; each comes with its answer.
For KKKKKKKTKKKK on Saccharomyces cerevisiae, measured protein stability index was 0.78

For GCLFLCPLSPLI on Saccharomyces cerevisiae, measured protein stability index was 0.685

For ASTTNLGNPFKA on Saccharomyces cerevisiae, measured protein stability index was 0.654

New cases:
For SGPLPCPPLPAP on Saccharomyces cerevisiae, measured protein stability index was 0.676

For LLLSQSSFCLTC on Saccharomyces cerevisiae, measured protein stability index was 0.637

For IPKDLSRLELYR on Saccharomyces cerevisiae, measured protein stability index was 0.62

For YSPAYDHLRPDH on Saccharomyces cerevisiae, measured protein stability index was 0.703

For ERGEEGGRERRR on Saccharomyces cerevisiae, measured protein stability index was 0.7

For PLPPISSFPSLS on Saccharomyces cerevisiae, measured protein stability index was 0.703

For YLSACLCGGFCS on Saccharomyces cerevisiae, measured protein stability index was 0.684

---

- Tested on: Saccharomyces cerevisiae
- assay-overview: protein stability index of tFT-peptide fusion (C-terminal peptide) (PSI (0-1 scale)); higher = more stable (slower turnover)
- measurement-context: genetic background: das1 deletion; temperature: 30 C
assay-metric: protein stability index
Please state the value as a number alone, without comment.

Please review the entries below; each comes with its answer.
EKIKRDLALKKG [PET100 C-terminal 12 aa] yielded protein stability index of 0.697

IIGIYYVLKWLR [BOS1 C-terminal 12 aa] yielded protein stability index of 0.351

NNFCALYNLSNP [RPN14 C-terminal 12 aa] yielded protein stability index of 0.714

KEGRRSRTRTSS [YJR098C C-terminal 12 aa] yielded protein stability index of 0.705

FFFLLTSLLSPF [LCL1 C-terminal 12 aa] yielded protein stability index of 0.637

Let us move to another entry and its protein stability index.
SNRTLSNETDAL [ACE2 C-terminal 12 aa] yielded protein stability index of 0.707

---

- Tested on: Saccharomyces cerevisiae
- assay-overview: protein stability index of tFT-peptide fusion (C-terminal peptide) (PSI (0-1 scale)); higher = more stable (slower turnover)
- measurement-context: genetic background: wild type; temperature: 37 C
Assign TRUE to entries whose protein stability index meets or exceeds 0.4; assign FALSE to the rest.

As a guide, the following entries are already answered.
Could you please find out whether LGALFGRFWWYF has protein stability index that meets 0.4 or exceeds it? TRUE

Could you please find out whether PPPPPPPFLFFL has protein stability index that meets 0.4 or exceeds it? TRUE

Could you please find out whether LFSTRRWISVCA has protein stability index that meets 0.4 or exceeds it? FALSE

Could you please find out whether VSVFSLFLFLRV has protein stability index that meets 0.4 or exceeds it? FALSE

Could you please find out whether VVACCVVFWVLP has protein stability index that meets 0.4 or exceeds it? TRUE

New cases:
Could you please find out whether KKKNIYKVMKLE has protein stability index that meets 0.4 or exceeds it? FALSE

Could you please find out whether LGVLVVAFCGGC has protein stability index that meets 0.4 or exceeds it? TRUE

Could you please find out whether RHTVFFCQLLLV has protein stability index that meets 0.4 or exceeds it? FALSE

Could you please find out whether FFLKPVPSLFLC has protein stability index that meets 0.4 or exceeds it? FALSE

Could you please find out whether AVRLPFPLLVHL has protein stability index that meets 0.4 or exceeds it? FALSE

Could you please find out whether LFSIFMSYRVYI has protein stability index that meets 0.4 or exceeds it? TRUE

Could you please find out whether RARRFGKWERSG has protein stability index that meets 0.4 or exceeds it? TRUE

Could you please find out whether SFVCFFLNLFVY has protein stability index that meets 0.4 or exceeds it? FALSE

Could you please find out whether DYRCWCAILVSS has protein stability index that meets 0.4 or exceeds it? FALSE

Could you please find out whether PCPAPRPPSPSA has protein stability index that meets 0.4 or exceeds it? TRUE

Could you please find out whether FPCIFFFCLFIL has protein stability index that meets 0.4 or exceeds it? FALSE

Could you please find out whether FVLLSVCFFGCL has protein stability index that meets 0.4 or exceeds it? TRUE

Could you please find out whether LFLSFLLFVLAF has protein stability index that meets 0.4 or exceeds it? TRUE

Could you please find out whether RAPPPSSLLSPP has protein stability index that meets 0.4 or exceeds it? TRUE

Could you please find out whether TGPVFVSFRLLH has protein stability index that meets 0.4 or exceeds it? TRUE

Could you please find out whether AHPTLILTNKIA has protein stability index that meets 0.4 or exceeds it? FALSE

Could you please find out whether SPPSFPPLLLLS has protein stability index that meets 0.4 or exceeds it? TRUE

Cited source for all entries: the supplement of paper PMC10724198
